# test.system: α-glucosidase
# measurement.description: in vitro kinetic analysis of α-glucosidase inhibition
# measurement.conditions: inhibitor 5.00, 10.00, 20.00 µM; substrate 4-nitrophenyl α-D-glucopyranoside
measurement.label: Ki (µM)
One number for each entry, in µM.

get_value(item= COc1ccc(NC(=S)NC2c3ccccc3CC2O)cc1 (stereo not shown) [Compound 2h] , readout=Ki) returns 7.39

The measurements presented in this section are drawn from paper PMC12770330.
